These measurements were taken from PubChem BioAssay (NCI).

# System: MOLT-4 leukemia
# test method notes: NCI-60 one-dose screen, 48 h (100 = growth as untreated, 0 = no growth, -100 = all killed)
# condition description: 10 µM unless noted
# Experimental: Growth inhibition of the MOLT-4 human tumor cell line is measured as a screen for anti-cancer activity. Cells are grown in 96 well plates and exposed to the test compound for 48 hours. Compounds are tested at a single concentration, which is 10^-5 M for most compounds. The reported endpoint is percent growth (GI% or GIPRCNT), where numbers from 0 - 100% represent growth inhibition, and numbers from -100% - 0 represent cell death. For example, a value of 40 represents 60% growth inhibition. […]
The panel holds about 83,000 compounds, 20% with a hit somewhere; the sample as a whole holds those more often.
Entries and their measured growth follow.
Field: numeric (%). Do not append units.

Please review the following examples before continuing.
| compound | growth / % |
| --- | --- |
| O=C(O)c1cccc2oc(-c3ccccc3O)nc12 | 66.4 |
| O=C(C[n+]1cccc(Br)c1)c1ccc2c(c1)CCCC2 | 86.2 |
| COc1ccc(-c2nnc(NC(=O)CN3CCN(c4cc5c(cc4F)c(=O)c(C(=O)O)cn5C4CC4)CC3)s2)cc1OC | 93 |
| Fc1cccc(F)c1C#Cc1ccc2cccnc2c1 | 71.6 |
| CCC1(C(N)=O)CC2C=CC1CC2 (configuration not stated) | 111 |

// map CC1(C)Cc2c(Br)c(Br)c(Br)c(OCC(O)CN3CCN(c4ccccn4)CC3)c2O1 (configuration not stated) to recorded growth (system: MOLT-4 leukemia)
52.9

Can you handle N#Cc1c2c(c(N)[nH]c1=O)C(=O)NC2(O)c1ccccc1 (configuration not stated) next?
95.4

Can you handle COc1ccc(N)c(S)c1 next?
91

Can you handle O=C(O)c1cccc(S(=O)(=O)c2ccccc2)c1 next?
99.6

Can you handle COc1ccccc1NC(=O)COc1ccc(/C=C2/Oc3cc4occc4c(OC)c3C2=O)cc1OC next?
83.4

Can you handle COc1cc(-c2nc3ccccc3s2)ccc1OCc1nc2n(n1)S(=O)(=O)c1ccccc1N2c1ccccc1 next?
80.5
